target: T1, human IL-13 R130Q variant (R110Q of the mature chain) (human, UniProt P35225 35-146, Biotinylated on amines (NHS-LC-biotin, 4:1) in ELISA, panning and competition assays. The letters are unchanged.); experiment: single-point (10 nM) phage Fab ELISA on biotinylated IL-13 R130Q
T1 construct: R130Q counts from Met 1 of the signal peptide, R110Q on the mature chain; Bought from Peprotech; also called IL-13 R110Q; b-R130Q
T1 sequence (P35225 35-146 limits assumed, stated change not applied): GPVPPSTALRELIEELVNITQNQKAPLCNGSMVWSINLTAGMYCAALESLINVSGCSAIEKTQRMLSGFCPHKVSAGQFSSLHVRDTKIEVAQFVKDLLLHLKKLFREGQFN
For each of the binders below, state its Signal (% of Lc16Hc7).

Query string: Entry Fab clone 2G06 (IL-13-62 library) (Fab, V domains shown, Fab on phage pIX) VH: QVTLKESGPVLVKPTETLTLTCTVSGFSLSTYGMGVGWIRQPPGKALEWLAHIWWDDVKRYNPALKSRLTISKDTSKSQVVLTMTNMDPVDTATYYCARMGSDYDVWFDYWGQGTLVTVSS VL: EIVLTQSPATLSLSPGERATLSCRASKSISKYLAWYQQKPGQAPRLLIYSGSTLQGGIPARFSGSGSGTDFTLTISSLEPEDFAVYYCQQHLDSPYTFGQGTKLEIK has what Signal (% of Lc16Hc7)?
Result string: 112%

Query string: Entry to check: Fab clone 2D09 (IL-13-62 library) (Fab, V domains shown, Fab on phage pIX) VH: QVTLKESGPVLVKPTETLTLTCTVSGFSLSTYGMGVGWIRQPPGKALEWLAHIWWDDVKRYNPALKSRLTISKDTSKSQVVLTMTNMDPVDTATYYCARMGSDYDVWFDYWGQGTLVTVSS VL: EIVLTQSPATLSLSPGERATLSCRASKSISKYLAWYQQKPGQAPRLLIYSGSTLQSGIPARFSGSGSGTDFTLTISSLEPEDFAVYYCQQHNVGPYTFGQGTKLEIK
Result string: 108%

Query string: Next record, please: Fab clone 1C06 (IL-13-62 library) (Fab, V domains shown, Fab on phage pIX) VH: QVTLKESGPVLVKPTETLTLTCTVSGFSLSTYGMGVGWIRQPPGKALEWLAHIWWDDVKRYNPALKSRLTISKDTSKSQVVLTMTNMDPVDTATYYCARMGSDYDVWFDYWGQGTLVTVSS VL: EIVLTQSPATLSLSPGERATLSCRASKSISKYLAWYQQKPGQAPRLLIYSGSTLQSGIPARFSGSGSGTDFTLTISSLEPEDFAVYYCQQHSWGPYTFGQGTKLEIK
Result string: 172%

Query string: Can you handle Fab clone 1B05 (IL-13-62 library) (Fab, V domains shown, Fab on phage pIX) VH: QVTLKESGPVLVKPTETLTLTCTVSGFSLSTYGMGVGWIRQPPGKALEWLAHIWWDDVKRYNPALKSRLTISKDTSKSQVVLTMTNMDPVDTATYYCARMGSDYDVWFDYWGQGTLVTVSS VL: EIVLTQSPATLSLSPGERATLSCRASKSISKYLAWYQQKPGQAPRLLIYSGSTLQSGIPARFSGSGSGTDFTLTISSLEPEDFAVYYCQQHDRDPYTFGQGTKLEIK next?
Result string: 108%

Query string: For Fab clone 3H12 (IL-13-62 library) (Fab, V domains shown, Fab on phage pIX) VH: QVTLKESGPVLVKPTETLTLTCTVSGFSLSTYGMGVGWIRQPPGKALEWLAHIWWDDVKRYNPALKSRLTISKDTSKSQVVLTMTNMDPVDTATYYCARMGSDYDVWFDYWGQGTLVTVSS VL: EIVLTQSPATLSLSPGERATLSCRASKSISKYLAWYQQKPGQAPRLLIYSGSTLQSGIPARFSGSGSGTDFTLTISSLEPEDFAVYYCQQHDSGPYTFGQGTKLEIK then?
Result string: 120%

Query string: Same lookup for Fab clone 3G05 (IL-13-62 library) (Fab, V domains shown, Fab on phage pIX) VH: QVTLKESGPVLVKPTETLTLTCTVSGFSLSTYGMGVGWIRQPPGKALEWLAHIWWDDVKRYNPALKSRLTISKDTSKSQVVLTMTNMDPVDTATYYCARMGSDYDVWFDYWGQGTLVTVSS VL: EIVLTQSPATLSLSPGERATLSCRASKSISKYLAWYQQKPGQAPRLLIYSGSTLQSGIPARFSGSGSGTDFTLTISSLEPEDFAVYYCQQPLDSPYTFGQGTKLEIK , please.
Result string: 108%

Query string: Also Fab clone 3D11 (IL-13-62 library) (Fab, V domains shown, Fab on phage pIX) VH: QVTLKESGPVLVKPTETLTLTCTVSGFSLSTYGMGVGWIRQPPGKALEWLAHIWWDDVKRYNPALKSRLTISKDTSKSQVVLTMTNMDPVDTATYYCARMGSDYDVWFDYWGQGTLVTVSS VL: EIVLTQSPATLSLSPGERATLSCRASKSISKYLAWYQQKPGQAPRLLIYSGSTLQSGIPARFSGSGSGTDFTLTISSLEPEDFAVYYCQQHLNGPYTFGQGTKLEIK , if possible.
Result string: 136%

Query string: For Fab clone 1D02 (IL-13-62 library) (Fab, V domains shown, Fab on phage pIX) VH: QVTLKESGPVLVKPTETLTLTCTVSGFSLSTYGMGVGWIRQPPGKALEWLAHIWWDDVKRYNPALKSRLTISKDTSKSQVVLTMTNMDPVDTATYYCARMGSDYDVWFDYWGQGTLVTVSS VL: EIVLTQSPATLSLSPGERATLSCRASKSISKYLAWYQQKPGQAPRLLIYSGSTLQSGIPARFSGSGSGTDFTLTIGSLEPEDFAVYYCQQHDWSPYTFGQGTKLEIK then?
Result string: 117%

Query string: Lookup Fab clone 2A11 (IL-13-62 library) (Fab, V domains shown, Fab on phage pIX) VH: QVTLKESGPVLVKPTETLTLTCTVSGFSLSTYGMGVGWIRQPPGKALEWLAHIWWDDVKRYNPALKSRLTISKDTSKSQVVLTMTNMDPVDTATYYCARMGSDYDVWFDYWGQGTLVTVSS VL: EIVLTQSPATLSLSPGERATLSCRASKSISKYLAWYQQKPGQAPRLLIYSGSTLQSGIPARFSGSGSGTDFTLTISSLEPEDFAVYYCQQHSHGPYTFGQGTKLEIK
Result string: 132%

Query string: Entry to check: Fab clone 1A02 (IL-13-62 library) (Fab, V domains shown, Fab on phage pIX) VH: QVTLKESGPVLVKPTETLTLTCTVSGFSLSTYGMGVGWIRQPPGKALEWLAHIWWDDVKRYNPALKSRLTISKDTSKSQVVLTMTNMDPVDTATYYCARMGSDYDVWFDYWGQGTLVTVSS VL: EIVLTQSPATLSLSPGERATLSCRASKSISKYLAWYQQKPGQAPRLLIYSGSTLQSGIPARFSGSGSGTDFTLTISSLEPEDFAVYYCQQHSWAPYTFGQGTKLEIK
Result string: 120%

The reported numbers originate from patent US20120045438A1.
